For each entry below, report its inhibition value.
Molecular target: Phosphodiesterase 4 (Homo sapiens) (UniProt P27815+Q08499+Q07343+Q08493)
Assay: Inhibition of human PDE4 at 1 uM after 20 mins
Format: protein assay
One number for each entry, in %.

entrySmiles: CCCCOC(=O)n1c(-c2ccc(C#Cc3ccccc3)cc2)nc2ccccc21
targetSystem: Phosphodiesterase 4 (Homo sapiens) (UniProt P27815+Q08499+Q07343+Q08493)
readoutUnits: %
reported: 16.2
//
entrySmiles: CCn1c(-c2ccc(C#Cc3ccc4c(c3)C(C)(C)CCS4)cc2)nc2ccccc21
targetSystem: Phosphodiesterase 4 (Homo sapiens) (UniProt P27815+Q08499+Q07343+Q08493)
readoutUnits: %
reported: 15.8

# batch: return inhibition for each of the 3 compounds below
1. CC1(C)CCSc2ccc(C#Cc3ccc(-c4nc5ccccc5[nH]4)cc3)cc21
2. CC1(C)CCSc2ccc(C#Cc3ccc(-c4nc5ccccc5n4S(=O)(=O)C(F)(F)F)cc3)cc21
3. Cc1ccc(S(=O)(=O)n2c(-c3ccc(C#Cc4ccccc4)cc3)nc3ccccc32)cc1

Resp:
1: 0; 2: 22.6; 3: 22.6

###

For each entry below, report its inhibition value.
Biological target: Phosphodiesterase 4 (Homo sapiens) (UniProt P27815+Q08499+Q07343+Q08493)
Experiment: Inhibition of human PDE4 at 1 uM after 20 mins
Type: protein assay
Numbers only, in %.

entrySmiles: Cn1c(-c2ccc(C#Cc3ccc4c(c3)C(C)(C)CCS4)cc2)nc2ccccc21
readoutUnits: %
inhibition: 18.2
//
entrySmiles: CCCn1c(-c2ccc(C#Cc3ccc4c(c3)C(C)(C)CCS4)cc2)nc2ccccc21
readoutUnits: %
inhibition: 17.3

# batch: return inhibition for each of the 3 compounds below
1. CCCCOC(=O)n1c(-c2ccc(C#Cc3ccc4c(c3)C(C)(C)CCS4)cc2)nc2ccccc21
2. CCCn1c(-c2ccc(C#Cc3ccccc3)cc2)nc2ccccc21
3. COC(=O)n1c(-c2ccc(C#Cc3ccccc3)cc2)nc2ccccc21

Resp:
1. 21
2. 8.91
3. 18.2

###

Biological target: Dipeptidyl peptidase 4 (Homo sapiens) (UniProt P27487)
Sequence (P27487 whole entry, looked up): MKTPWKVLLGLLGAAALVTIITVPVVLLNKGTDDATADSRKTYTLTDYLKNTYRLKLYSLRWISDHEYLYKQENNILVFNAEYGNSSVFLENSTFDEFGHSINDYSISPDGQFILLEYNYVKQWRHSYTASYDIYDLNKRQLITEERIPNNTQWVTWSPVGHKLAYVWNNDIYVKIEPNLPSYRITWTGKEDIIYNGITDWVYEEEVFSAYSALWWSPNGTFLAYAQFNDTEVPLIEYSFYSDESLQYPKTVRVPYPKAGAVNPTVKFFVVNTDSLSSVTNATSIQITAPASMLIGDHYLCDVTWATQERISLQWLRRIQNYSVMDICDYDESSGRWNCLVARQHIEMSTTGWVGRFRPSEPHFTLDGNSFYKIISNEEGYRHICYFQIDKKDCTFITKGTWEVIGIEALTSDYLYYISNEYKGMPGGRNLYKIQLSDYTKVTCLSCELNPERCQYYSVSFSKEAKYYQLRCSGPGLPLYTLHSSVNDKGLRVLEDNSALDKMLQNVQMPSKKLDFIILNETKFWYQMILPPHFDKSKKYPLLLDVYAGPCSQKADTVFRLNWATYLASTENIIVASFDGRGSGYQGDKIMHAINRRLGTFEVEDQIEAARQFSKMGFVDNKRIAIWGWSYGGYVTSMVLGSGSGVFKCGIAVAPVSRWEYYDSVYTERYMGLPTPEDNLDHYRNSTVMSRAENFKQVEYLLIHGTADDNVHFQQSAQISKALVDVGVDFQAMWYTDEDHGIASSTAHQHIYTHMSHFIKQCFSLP
Assay: Inhibition of human recombinant DPP4 at 0.3 uM after 30 mins relative to control
For each entry below, report its inhibition value.
Answers are plain numbers, in %.

# batch: return inhibition for each of the 6 compounds below
1. CCCCOC(=O)n1c(-c2ccc(C#Cc3ccc4c(c3)C(C)(C)CCS4)cc2)nc2ccccc21
2. CCCCn1c(-c2ccc(C#Cc3ccc4c(c3)C(C)(C)CCS4)cc2)nc2ccccc21
3. COC(=O)n1c(-c2ccc(C#Cc3ccccc3)cc2)nc2ccccc21
4. CCCCn1c(-c2ccc(C#Cc3ccccc3)cc2)nc2ccccc21
5. COC(=O)n1c(-c2ccc(C#Cc3ccc4c(c3)C(C)(C)CCS4)cc2)nc2ccccc21
6. CCOC(=O)n1c(-c2ccc(C#Cc3ccccc3)cc2)nc2ccccc21

Resp:
0
5
0
3
5
0

###

For each entry below, report its inhibition value.
Target: Tyrosine-protein phosphatase non-receptor type 1 (Homo sapiens) (UniProt P18031)
Sequence (P18031 whole entry): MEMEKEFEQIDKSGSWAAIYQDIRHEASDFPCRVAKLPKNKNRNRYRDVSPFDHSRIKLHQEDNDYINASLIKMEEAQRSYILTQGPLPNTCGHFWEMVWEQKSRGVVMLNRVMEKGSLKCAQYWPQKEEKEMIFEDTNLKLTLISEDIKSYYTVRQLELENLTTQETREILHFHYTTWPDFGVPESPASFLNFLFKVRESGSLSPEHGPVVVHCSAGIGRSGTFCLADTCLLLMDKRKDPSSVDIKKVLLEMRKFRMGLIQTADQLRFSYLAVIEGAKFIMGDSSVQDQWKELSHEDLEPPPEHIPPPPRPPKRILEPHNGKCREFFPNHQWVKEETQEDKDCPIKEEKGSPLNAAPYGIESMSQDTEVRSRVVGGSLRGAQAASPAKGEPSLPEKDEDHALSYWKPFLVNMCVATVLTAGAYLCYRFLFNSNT
Assay: Inhibition of human recombinant PTP1B at 30 uM after 30 mins relative to control
Answers are plain numbers, in %.

entrySmiles: COC(=O)n1c(-c2ccc(C#Cc3ccccc3)cc2)nc2ccccc21
inhibition, %: 29

# batch: return inhibition for each of the 5 compounds below
1. C(#Cc1ccc(-c2nc3ccccc3[nH]2)cc1)c1ccccc1
2. CCCCn1c(-c2ccc(C#Cc3ccc4c(c3)C(C)(C)CCS4)cc2)nc2ccccc21
3. CCOC(=O)n1c(-c2ccc(C#Cc3ccc4c(c3)C(C)(C)CCS4)cc2)nc2ccccc21
4. CCCCOC(=O)n1c(-c2ccc(C#Cc3ccc4c(c3)C(C)(C)CCS4)cc2)nc2ccccc21
5. CCn1c(-c2ccc(C#Cc3ccccc3)cc2)nc2ccccc21

Resp:
1. 1.64
2. 0.15
3. 0
4. 1.94
5. 2.2

# batch: return inhibition for each of the 4 compounds below
1. CCCCn1c(-c2ccc(C#Cc3ccccc3)cc2)nc2ccccc21
2. Cn1c(-c2ccc(C#Cc3ccc4c(c3)C(C)(C)CCS4)cc2)nc2ccccc21
3. CC1(C)CCSc2ccc(C#Cc3ccc(-c4nc5ccccc5[nH]4)cc3)cc21
4. CC1(C)CCSc2ccc(C#Cc3ccc(-c4nc5ccccc5n4S(=O)(=O)C(F)(F)F)cc3)cc21

Resp:
[0, 0, 2.42, 0.52]
